- measurement-target: pERK1/2 (Thr202/Tyr204), PANC-1 (KRAS G121D) (Homo sapiens, UniProt P01116, G12D)
- Construct: pERK1/2 HTRF read-out
- Sequence (P01116 1-188 isoform P01116-2 G12D): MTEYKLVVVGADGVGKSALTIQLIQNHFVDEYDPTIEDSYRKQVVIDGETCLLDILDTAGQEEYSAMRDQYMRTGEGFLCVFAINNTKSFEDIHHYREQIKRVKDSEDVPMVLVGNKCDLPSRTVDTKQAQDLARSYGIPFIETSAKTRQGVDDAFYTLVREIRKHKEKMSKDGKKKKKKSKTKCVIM
- protocol-summary: Assay of intracellular pERK1/2 (Thr202/Tyr204) phosphorylation in PANC-1 cells (KRAS G12D)
- Format: cell-based
- setup-conditions: pERK1/2, 2 days, read-out: PANC-1 (KRAS G12D) IC50
pIC50: −log10 of the molar value.
observation-type: pIC50

Worked cases, answers included:
{"compound": "CC(c1cccnc1N)N1CCOc2nc(-c3cc(O)cc4ccc(F)c(F)c34)c(F)c3nc(OC[C@@H]4CC(F)(F)CN4C)nc1c23 (some centres unmarked) [Compound 46]", "observation-type": "pIC50", "recorded-number": 6.54}
{"compound": "CC(c1cccnc1N)N1c2nc(OC[C@@]34CCCN3C[C@H](F)C4)nc3c(F)c(-c4c(C(F)(F)F)cnc5[nH]ccc45)nc(c23)OC[C@@H]1C (some centres unmarked)", "observation-type": "pIC50", "recorded-number": 8.00}
{"compound": "CC(c1cccnc1N)N1CCOc2nc(-c3cc(N)c(F)c(Cl)c3C(F)(F)F)c(F)c3nc(OCC45CC(F)CN4CC(F)C5)nc1c23 (single isomer, unassigned; diastereomer 1) [Compound 245]", "observation-type": "pIC50", "recorded-number": 8.00}
{"compound": "[2H]C1([2H])CC[C@@]2(COc3nc4c5c(nc(-c6cc(N)cc(C)c6C(F)(F)F)c(F)c5n3)OCCN4C(C)c3cccnc3N)C[C@@H](F)CN12 (some centres unmarked)", "observation-type": "pIC50", "recorded-number": 9.10}
{"compound": "CC(c1cccnc1N)N1c2nc(OC[C@@]34CCCN3C[C@H](F)C4)nc3c(F)c(-c4c5c(cc6[nH]ncc46)CCC5(F)F)nc(c23)OC[C@@H]1C (some centres unmarked)", "observation-type": "pIC50", "recorded-number": 8.70}

A = Cc1cc(O)cc(-c2nc3c4c(nc(OC[C@@]56CCCN5C[C@H](F)C6)nc4c2F)N(C(C)c2cccnc2N)CCO3)c1C1CC1 (some centres unmarked)
B = Cc1cc(N)cc(-c2nc3c4c(nc(OC[C@@]56CCCN5C/C(=C\F)C6)nc4c2F)N(C(C)c2cccnc2N)CCO3)c1C(F)(F)F (some centres unmarked)
C = CC(c1cc(F)cnc1N)N1c2nc(OC[C@@]34CCCN3C[C@H](F)C4)nc3c(F)c(-c4c5cn[nH]c5cc5cccc(F)c45)nc(c23)OC[C@@H]1C (some centres unmarked)
Sort ascending by pIC50. Provide your answer as the labels ordered per the instruction. A, C, B

Provenance of the data: patent US20260356851A1
